# Papp B→A at 5 µM per entry
system: P-gp (human MDR1); assay: in vitro; settings: dog, MDCK-MDR1
endpoint: Papp B→A at 5 µM (nm/s)

compound=Cc1ncsc1-c1ccc(CNC(=O)[C@@H]2C[C@@H](O)CN2C(=O)[C@@H](NC(=O)CCCCCOC(=O)CC(c2ccccc2)c2ccccc2)C(C)(C)C)cc1 endpoint="Papp B→A at 5 µM" observed_value=139
compound=CCCCOc1ccc(-c2ccc(C(=O)NCCCCCC(=O)N[C@H](C(=O)N3C[C@H](O)C[C@H]3C(=O)NCc3ccc(-c4scnc4C)cc3)C(C)(C)C)cc2)cc1 endpoint="Papp B→A at 5 µM" observed_value=2
compound=Cc1ncsc1-c1ccc(CNC(=O)[C@@H]2C[C@@H](O)CN2C(=O)[C@@H](NC(=O)CCCCCOC(=O)CC23CC4CC(CC(C4)C2)C3)C(C)(C)C)cc1 endpoint="Papp B→A at 5 µM" observed_value=45
compound=COCC(=O)NCCCCCC(=O)N[C@H](C(=O)N1C[C@H](O)C[C@H]1C(=O)NCc1ccc(-c2scnc2C)cc1)C(C)(C)C endpoint="Papp B→A at 5 µM" observed_value=17
compound=Cc1ncsc1-c1ccc(CNC(=O)[C@@H]2C[C@@H](O)CN2C(=O)[C@@H](NC(=O)CCCCCNC(=O)CC23CC4CC(CC(C4)C2)C3)C(C)(C)C)cc1 endpoint="Papp B→A at 5 µM" observed_value=237
compound=Cc1ncsc1-c1ccc(CNC(=O)[C@@H]2C[C@@H](O)CN2C(=O)[C@@H](NC(=O)CCOCCNC(=O)Cc2ccccc2)C(C)(C)C)cc1 endpoint="Papp B→A at 5 µM" observed_value=46
compound="CC(C)NCC(O)COc1cccc2ccccc12 (stereo not drawn) [Propranolol, reference compound]" endpoint="Papp B→A at 5 µM" observed_value=416
compound=Cc1ncsc1-c1ccc(CNC(=O)[C@@H]2C[C@@H](O)CN2C(=O)[C@@H](NC(=O)CCCCCNC(=O)Cc2ccccc2)C(C)(C)C)cc1 endpoint="Papp B→A at 5 µM" observed_value=84
compound=CCCC(=O)OCCCCCC(=O)N[C@H](C(=O)N1C[C@H](O)C[C@H]1C(=O)NCc1ccc(-c2scnc2C)cc1)C(C)(C)C endpoint="Papp B→A at 5 µM" observed_value=470
compound=COCC(=O)OCCCCCC(=O)N[C@H](C(=O)N1C[C@H](O)C[C@H]1C(=O)NCc1ccc(-c2scnc2C)cc1)C(C)(C)C endpoint="Papp B→A at 5 µM" observed_value=110
compound=CCCC(=O)NCCCCCC(=O)N[C@H](C(=O)N1C[C@H](O)C[C@H]1C(=O)NCc1ccc(-c2scnc2C)cc1)C(C)(C)C endpoint="Papp B→A at 5 µM" observed_value=29
compound=Cc1ncsc1-c1ccc(CNC(=O)[C@@H]2C[C@@H](O)CN2C(=O)[C@@H](NC(=O)CCCCCOC(=O)C2CCCCC2)C(C)(C)C)cc1 endpoint="Papp B→A at 5 µM" observed_value=356
